# measured target: Cytochrome P450 3A4 (Homo sapiens)
# measurement notes: qHTS Assay for Inhibitors and Substrates of Cytochrome P450 3A4 (AID 884); also: % is scaled to controls: 0 for no effect and ±100 for the full control effect; nearly all actives have a fitted effect of over 50% in size
# condition summary: recombinant CYP3A4, Luciferin-PPXE luminescence; series mostly up to 57.1 µM
Results filed as inconclusive are left out. Active and inactive are the calls of the source. Calls follow the shape of the dose curve; as a rule, active = well fitted inhibition curve with a large enough effect; inconclusive = small, poorly fitted or top-dose-only effect; inactive = no such curve, though single readings can be large or run the other way.
Each entry below carries its reported activity change, negative = inhibition.

Notebook: CC1=C(CC[C@H](C)CO)O[C@@H]2C[C@@H]3[C@H]4CC[C@H]5C[C@@H](O)CC[C@]5(C)[C@@H]4CC(=O)[C@@]3(C)[C@@H]12 , activity change, negative = inhibition read as 87.6% [at 11.4 µM] (inactive)

Notebook: CCC1CN2CCC1CC2C(Oc1cc2ccccc2c2ccccc12)c1ccnc2ccc(O)cc12 (centres undefined) , activity change, negative = inhibition read as -10.8% [at 11.4 µM] (inactive)

Notebook: C[C@@]12CC[C@@H]3[C@@H](CC[C@H]4C[C@@H](O)CC[C@]43C)[C@H]1CC[C@@H]2c1cc(C(F)(F)F)n[nH]1 , activity change, negative = inhibition read as 103% [at 11.4 µM] (inactive)

Notebook: COc1ccc2c(c1)CN([C@H](C)[C@@H]1CC[C@@H]3[C@H]4CC[C@H]5C[C@@H](O)CC[C@@]5(C)[C@H]4CC[C@]31C)CO2 , activity change, negative = inhibition read as 321% [at 11.4 µM] (inactive)

---

# Test system: CP305
# measurement notes: qHTS profiling for inhibitors of Plasmodium falciparum proliferation (AID 504749); also: nearly all actives have a fitted effect of over 60% in size
# condition summary: P. falciparum in erythrocytes, SYBR Green DNA, 72 h; series mostly up to 28.7 µM
Results filed as inconclusive are left out. The source made the active and inactive calls. Calls come from the whole dose curve; as a rule, active = well fitted inhibition curve with a large enough effect; inconclusive = small, poorly fitted or top-dose-only effect; inactive = flat fitted curve, though single readings scatter.
Give your call using only these classes: 1 (active), 0 (inactive)

Known results for compounds:
{"compound": "OCC(O)[C@H]1O[C@@H]2O[C@H](C(Cl)(Cl)Cl)O[C@@H]2[C@H]1O (stereo partly specified)", "class label": 0}
{"compound": "CCCC(C)C1(CC)C(=O)NC(=S)NC1=O (stereo unspecified)", "class label": 0}
{"compound": "CCC/C=C/C=C/C(=O)OC1/C(=C/C(=O)OC)CC2CC(C(C)O)OC(=O)CC(O)CC3CC(OC(C)=O)C(C)(C)C(O)(CC4C/C(=C/C(=O)OC)CC(/C=C\\C(C)(C)C1(O)O2)O4)O3 (stereo unspecified)", "class label": 1}
{"compound": "CC(=O)O[C@H]1C[C@H](O[C@H]2[C@@H](O)CC(O[C@H]3[C@@H](O)C[C@H](O[C@H]4CC[C@@]5(C)[C@H](CC[C@@H]6[C@@H]5CC[C@]5(C)[C@@H](C7=CC(=O)OC7)CC[C@]65O)C4)O[C@@H]3C)O[C@@H]2C)O[C@H](C)[C@H]1O[C@@H]1O[C@H](CO)[C@@H](O)[C@H](O)[C@H]1O (stereo partly specified)", "class label": 0}
{"compound": "CC1CC[C@@]2(NC1)OC1CC3C4CC[C@@H]5CC(O)CC[C@@]5(C)C4CC[C@]3(C)C1C2C (stereo partly specified)", "class label": 0}

Kindly consider the entry below.
[in] Field: outcome | Entry: OC[C@@H](O)[C@H]1O[C@@H]2OC(C(Cl)(Cl)Cl)O[C@H]2[C@H]1O (stereo partly specified)
[out] 0

---

# measurement notes: qHTS assay for environmental chemicals that activate the Aryl hydrocarbon Receptor (AhR) signaling pathway (AID 651777); also: % of control where 0% means no effect; nearly all actives have a fitted effect of over 15% in size
# condition summary: 1A2-DRE human hepatoma cells, luciferase, 24 h; stronger effect = higher value
Results filed as inconclusive are left out.
endpoint: activation (%)
Write the value in % as a bare number.

{"compound": "CCCSP(=O)(OCC)Oc1ccc(Br)cc1Cl (centres undefined)", "unit of measure": "%", "experimental value": 3.36}
{"compound": "CC(Oc1cc(Cl)c(Cl)cc1Cl)C(=O)O (centres undefined)", "unit of measure": "%", "experimental value": 2.71}
{"compound": "CC1=C(C(=O)Nc2ccccc2)S(=O)(=O)CCO1", "unit of measure": "%", "experimental value": -2.25}

Attention now turns to another entry.
Notebook: CN(c1c(Br)cc(Br)cc1Br)c1c([N+](=O)[O-])cc([N+](=O)[O-])cc1C(F)(F)F , activation read as -7.94

---

# measured target: Nuclear receptor subfamily 1 group I member 2 (Rattus norvegicus)
# measurement notes: qHTS assay for small molecule activators of the rat pregnane X receptor (rPXR) signaling pathway (AID 651751); also: 0% is about no effect
# condition summary: rPXR reporter cells, luciferase (One-Glo), 24 h
endpoint: max response (%)
Write the value in % as a bare number.

{"compound": "O=C(NC(=O)c1c(F)cccc1F)Nc1ccc(Cl)cc1", "unit of measure": "%", "max response": 11}

Reported max response (Nuclear receptor subfamily 1 group I member 2 (Rattus norvegicus)) for entry CNC(=O)/C=C(\C)OP(=O)(OC)OC is 0.645

Reported max response (Nuclear receptor subfamily 1 group I member 2 (Rattus norvegicus)) for entry CCC[CH2][Sn]([CH2]CCC)[CH2]CCC is -14

Reported max response (Nuclear receptor subfamily 1 group I member 2 (Rattus norvegicus)) for entry Clc1ccc(-c2cc(Cl)c(Cl)cc2Cl)cc1Cl is -1.84

Reported max response (Nuclear receptor subfamily 1 group I member 2 (Rattus norvegicus)) for entry CC(C)(C)OOC(C)(C)CCC(C)(C)OOC(C)(C)C is -1.16

---

# measurement notes: qHTS assay for small molecule agonists of retinoid X receptor alpha signaling (AID 588544)
# condition summary: HEK293T RXRa-UAS-bla, beta-lactamase reporter, 18 h; 530 nm emission
Results filed as inconclusive are left out.
endpoint: max response (%)
Write the value in % as a bare number.

{"compound": "N#CN=C1SCCN1Cc1ccc(Cl)nc1", "unit of measure": "%", "experimental value": 6.15}
{"compound": "CCOC(=O)C(Cl)Cc1cc(-n2nc(C)n(C(F)F)c2=O)c(F)cc1Cl (stereo unspecified)", "unit of measure": "%", "experimental value": 14.3}
{"compound": "N#CC(Br)(Br)C(N)=O", "unit of measure": "%", "experimental value": 6.67}

Notebook: CC(C)(C)N(NC(=O)c1ccc(Cl)cc1)C(=O)c1ccccc1 , max response read as -8.46

Notebook: O=CNC(N1CCN(C(NC=O)C(Cl)(Cl)Cl)CC1)C(Cl)(Cl)Cl (stereo unspecified) , max response read as -14.2

Notebook: S=C([S-])NCCNC(=S)[S-].[Zn+2] , max response read as 2.58

Notebook: Cc1cc(C2CC2)nc(Nc2ccccc2)n1 , max response read as 7.71

---

# measurement notes: qHTS assay for small molecule activators of the p53 signaling pathway (AID 651743); also: % of control where 0% means no effect
# condition summary: HCT-116 p53RE-bla, beta-lactamase FRET ratio, 16 h; stronger effect = higher value
# Excerpt: National Center for Advancing Translational Sciences [NCATS] NIH Chemical Genomics Center [NCGC] U.S. Environmental Protection Agency [EPA] National Institutes of Environmental Health Sciences [NIEHS] National Toxicology Program [NTP] Assay Overview: p53, a tumor suppressor protein, is activated following cellular insult, including DNA damage and other cellular stresses. […] The activation of the report gene under culture conditions can be detected by fluorescence intensity. […]
Results filed as inconclusive are left out.
Each entry below carries its reported activation.
Write the value in % as a bare number.

// solved cases for activation follow
{"compound": "COP(=O)(OC)SCn1c(=O)oc2cc(Cl)cnc21", "endpoint": "activation", "experimental value": 13.8}
{"compound": "O=C(O)[C@@H]1[C@H](C(=O)O)[C@@]2(Cl)C(Cl)=C(Cl)[C@]1(Cl)C2(Cl)Cl", "endpoint": "activation", "experimental value": -1.67}
{"compound": "CCOP(=O)(OCC)Oc1ccc2c(C)c(Cl)c(=O)oc2c1", "endpoint": "activation", "experimental value": 2.64}
{"compound": "CC(C)(C)C(O)C(Oc1ccc(-c2ccccc2)cc1)n1cncn1 (stereo not drawn)", "endpoint": "activation", "experimental value": 6.28}
{"compound": "CCCCC(CC)CO[N+](=O)[O-] (stereo not drawn)", "endpoint": "activation", "experimental value": -4.18}
{"compound": "CC(C)(C)C(=O)[C@@H](Oc1ccc(Cl)cc1)n1cncn1", "endpoint": "activation", "experimental value": 0.216}
{"compound": "C=CCOC(=O)C(C)(C)OC(=O)c1cc(-n2c(=O)cc(C(F)(F)F)n(C)c2=O)ccc1Cl", "endpoint": "activation", "experimental value": 4.39}
{"compound": "CCOc1nc(F)cc2nc(S(=O)(=O)Nc3c(Cl)cccc3Cl)nn12", "endpoint": "activation", "experimental value": 1.78}
{"compound": "CCCC1COC(Cn2cncn2)(c2ccc(Cl)cc2Cl)O1 (stereo not drawn)", "endpoint": "activation", "experimental value": -6.14}
{"compound": "Cc1ccc(O)cc1C", "endpoint": "activation", "experimental value": -0.374}

Notebook: CCOP(=O)(OCC)SCSP(=S)(OCC)OCC , activation read as -1.69

Notebook: CCOP(=O)(OCC)SCSCC , activation read as 4.72

Notebook: COc1cc(OC)nc(NC(=O)NS(=O)(=O)c2ncccc2OCC(F)(F)F)n1 , activation read as -0.487

Notebook: O=C(O)C(F)(F)C(F)(F)C(F)(F)C(F)(F)C(F)(F)F , activation read as -4.82

Notebook: FC(F)(F)c1ccc(OCCCOc2c(Cl)cc(OCC=C(Cl)Cl)cc2Cl)nc1 , activation read as 2.67

Notebook: CN1COCN(Cc2cnc(Cl)s2)/C1=N\[N+](=O)[O-] , activation read as -3.46

Notebook: CCC/C(=N\OCC)C1=C(O)CC(CC(C)SCC)CC1=O (stereo not drawn) , activation read as -6.84

Notebook: CC(c1ccc(O)cc1)(c1ccc(O)cc1)c1ccc(O)cc1 , activation read as -9.57

Notebook: CCOP(=S)(OCC)SC(CCl)N1C(=O)c2ccccc2C1=O (stereo not drawn) , activation read as -5.87

Notebook: CCCOCC(=Nc1ccc(Cl)cc1C(F)(F)F)n1ccnc1 , activation read as -5.04

Notebook: O=C(NC(=O)c1c(F)cccc1F)Nc1cc(Cl)c(OC(F)(F)C(F)C(F)(F)F)c(Cl)c1F (stereo not drawn) , activation read as 2.49

Notebook: O=C(O)C1(O)c2ccccc2-c2ccc(Cl)cc21 (stereo not drawn) , activation read as 13.8

Notebook: CC1(C)[C@H](C(=O)O[C@H](C#N)c2cccc(Oc3ccccc3)c2)[C@@H]1/C=C(\Cl)C(F)(F)F , activation read as 1.92
